# Study Target: T1, Rpa1 AROD-OB-1 (Rpa1 N-ter) (Pyrococcus abyssi, UniProt G8ZHS0 1-193)
# T1 sequence: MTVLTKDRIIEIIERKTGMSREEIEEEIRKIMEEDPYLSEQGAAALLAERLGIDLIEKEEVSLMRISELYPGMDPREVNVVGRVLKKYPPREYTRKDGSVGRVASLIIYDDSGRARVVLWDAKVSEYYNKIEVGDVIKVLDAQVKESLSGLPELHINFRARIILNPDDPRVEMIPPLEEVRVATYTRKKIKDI
# Measurement Notes: BLI; steady state, 25 C; SPR/BLI: 20 mM Na-HEPES pH 8, 150 mM NaCl, 25 C (+0.05% Tween for SPR; +0.2 mg/mL BSA for BLI); EMSA: 30 mM Tris-HCl pH 7.5, 300 mM NaCl, 0.5 g/L BSA, 5% Ficoll, 60 C 1 h, 1% agarose gel at 4 C
# Conditions Used: protein: recombinant; label: 3'-biotin-TEG
Quantity Measured: pKd
In simple prose, pKd is minus the logarithm base ten of a concentration in moles per litre.

Query block: Which pKd is listed for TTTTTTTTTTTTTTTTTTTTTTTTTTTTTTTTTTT (ssDNA) [poly-dT35] ?
Result block: 6.07

Reference for the values: paper PMC10122647
